target_or_test_system: SA2001 (Staphylococcus aureus, UniProt Q2FW57, N2D)
assay_info: Binding affinity by isothermal titration calorimetry
Parameters: species or system S. aureus
conditions: ITC, 10 mM HEPES pH 7.0, 3% DMSO; read-out: dissociation constant (Kd)
endpoint_name: Kd (µM)
One number for each entry, in µM.

Query: Provide value of Kd for this record tested with SA2001 (Staphylococcus aureus, UniProt Q2FW57, N2D): O=C(O)c1ccccc1Nc1cccc(C(F)(F)F)c1 [FLF, flufenamic acid]
Response: 38.1

---

target_or_test_system: SA1606 (Staphylococcus aureus, UniProt Q2FXE2)
assay_info: Binding affinity by isothermal titration calorimetry
conditions: ITC, 10 mM HEPES pH 7.0, 3% DMSO; read-out: dissociation constant (Kd)
endpoint_name: Kd (µM)
Numbers only, in µM.

Query: Can you share its Kd? I mean this molecule: O=C(O)c1ccccc1Nc1cccc(C(F)(F)F)c1
Response: 14.5
